# system: pooled human IgG (human IgG1, 2, 3 and 4)
measurement name: Enzyme Activity Endpoint Assay: Fab′2 (ng/µL)
Respond with the bare value in ng/µL.

Challenge: Value lookup for Enzyme Activity Endpoint Assay: Fab′2; key = PRT-547 (protein) MANQEIRYSEETPKTITSVWTKGVTPPTDFIQNEDVLHAPYIANQGWYDITKTFNGKDDLLCGAATAGNMLHWWFDQNKEEIENYLKKHPEKQKINFNGEQMFDVKEAIDTKDSQTDSALFEYFKDKAFPYLSTKHLGVFPDHVIDMFINGYRLSLTNHGPTPVKRGTKDPRGGIFDAVFTRGDQSKLLTARHDFKEKTLNEISDLIKQELTEGKALGLSHTYANVRINHVINLWGADFNSEGNLEAIYVTDSDSNASIGMKKYYVGVNAAGKVAISAKEIEGDNIGAQVLGLFTLSTGQDIWEQTNLEHHHHHH
Response given: 527

Cited source for all entries: patent US20250027068
